This collection of values is drawn from PubChem BioAssay (Tox21).

assay: qHTS assay to test for compound auto fluorescence at 535 nm (green) in HEK293 cells (AID 720680); conditions: green autofluorescence 485/535 nm; series mostly up to 91.3 µM
The source made the active and inactive calls. The call rests on the fitted dose curve; in most records, active means well fitted curve in the direction sought with a large enough effect in the repeat runs; inconclusive means weak or mixed curves; inactive means flat fitted curve, though single readings scatter.
MEASURED_ATTRIBUTE: fluorescence, % of fluorescein

# annotated cases, reported fluorescence, % of fluorescein shown
CCOC(=O)N(C)C(=O)CSP(=S)(OCC)OCC; inactive
CCC1(c2ccccc2)C(=O)NC(=O)NC1=O; inactive
CC(C)[N+](=O)[O-]; inactive
O=[N+]([O-])c1cccc2c([N+](=O)[O-])cccc12; inactive
ClC(Br)Br; inactive

Quick one: give me fluorescence, % of fluorescein for each item below, same order please.
1. ClCCOCOCCCl
2. CC(N)=S
3. O=CNC(N1CCN(C(NC=O)C(Cl)(Cl)Cl)CC1)C(Cl)(Cl)Cl (stereo not drawn)

["inactive", "inactive", "inactive"]
